This collection of values is drawn from ChEMBL document CHEMBL1201862.

System: MOLT-4
Experiment: NCI tumour cell line growth inhibition, 48 h
The source made the active and inactive calls. No stated cut-off is given here; in the data, active = GI50 up to about 1.1 µM and inactive = higher. Where a SMILES comes first, the peptide text is derived from it. The star is where a group is joined. Cbz = O=C(OCc1ccccc1)*
Your reply should match one of these outcome classes. active, inactive

Given CN(C)/N=C(/c1nc2ccc(Cl)cc2nc1O)C(O)c1ccc(C(O)/C(=N\N(C)C)c2nc3ccc(Cl)cc3nc2O)cc1 (stereo not given) , state the outcome it received in this test. inactive

Same question for O=C1Cc2ccccc2N1/N=C\c1ccc(O)cc1 please. inactive

Same question for Cc1ccc2nc3ccccc3c(C3C4C(=O)N(c5ccc(F)cc5)C(=O)C4ON3C(C(N)=O)c3ccccc3)c2c1 (stereo not given) please. inactive

Same question for Cc1ccc([N+](=O)[O-])c2c(NCCC[N+](C)(C)[O-])ccnc12 please. inactive

Same question for CCOC(=O)c1csc(NC(=O)CCN2CCCCC2)n1 please. inactive

Same question for CCC1NC(=O)C1NC(=O)OC (stereo not given) please. inactive

Same question for O=C(OCc1ccccc1)N1N=NC2C3CC(OCc4ccccc4)(OCc4ccccc4)C(O3)C21 (stereo not given) please. inactive

Same question for C=C(NC(=O)C(=C)NC(=O)c1ccc2c(n1)-c1coc(n1)C(=C)NC(=O)C(=C)NC(=O)c1nc(oc1C)C(=C)NC(=O)C(C(C)(C)O)NC(=O)C(=C)NC(=O)c1coc(n1)/C(=C/C)NC(=O)[C@H]([C@@H](C)O)NC(=O)c1csc-2n1)C(N)=O (stereo not given in full) please. inactive

Same question for CCOC(=O)/C(=C/c1ccc[nH]1)P(=O)(OCC)OCC please. inactive

Same question for COC1CC(OS(=O)(=O)c2ccc([N+](=O)[O-])cc2)C(OC(=O)c2ccccc2)C(C)O1 (stereo not given) please. inactive

Same question for C[C@@H](C[C@H]1OC(C)(C)O[C@@H]1C(C)(C)O)[C@H]1CC=C2[C@]3(C)[C@H](O)C[C@H]4C(C)(C)[C@H](O)CC[C@]4(C)[C@H]3CC[C@]21C please. inactive

Same question for CCOC(=O)C(CC(=O)OC)NC(=O)C(CC(=O)OC)NC(=O)C(CC(=O)OC)NC(=O)C(CC(=O)OC)NC(=O)OCc1ccccc1 (stereo not given) (Cbz-D(OMe)D(OMe)D(OMe)D(OMe)-OEt; configuration not given here) please. inactive

Same question for CCOC(=O)CC[C@H](NC(=O)c1nc[nH]c1/N=N/N(C)C)C(=O)OCC please. inactive

Same question for COC1C(OC(=O)/C=C/C=C/C=C/C=C\C(=O)O)CCC2(CO2)C1C1(C)OC1CC=C(C)C (stereo not given) please. inactive

Same question for C[C@H]1CCC/C=C/[C@@H]2C[C@H](OC3OC(CO)C(O)C(O)C3O)C[C@H]2[C@H](O)/C=C/C(=O)O1 (stereo not given in full) please. inactive

Same question for CC(C)Cc1ccc(C(C)/C=C2\CCC(CN(C)C)C2=O)cc1 (stereo not given) please. inactive

Same question for C(=C\c1csnn1)/c1cccnc1 please. inactive

Same question for Cc1cnc2nc(-c3ccc4ccccc4c3)cc(O)c2c1 please. active

Same question for C=C1Oc2nc3ccccc3c(=O)n2C1(C)C please. inactive

Same question for NC(=O)CCC(CCC(N)=O)(CCC(N)=O)[N+](=O)[O-] please. inactive
